Record form. Attribute: koff. Fill in for each entry.
target: T1, full length recombinant human 2N4R tau (human, UniProt P10636 1-758); assay: SPR MCK, IgG on Protein A, tau in flow
T1 construct: bought from rPeptide; pHrodo Red maleimide-labelled where it stands in uptake assays; also called tau1-441; full length tau
T1 sequence (P10636 other isoform, or with tags, fused parts or gaps limits assumed): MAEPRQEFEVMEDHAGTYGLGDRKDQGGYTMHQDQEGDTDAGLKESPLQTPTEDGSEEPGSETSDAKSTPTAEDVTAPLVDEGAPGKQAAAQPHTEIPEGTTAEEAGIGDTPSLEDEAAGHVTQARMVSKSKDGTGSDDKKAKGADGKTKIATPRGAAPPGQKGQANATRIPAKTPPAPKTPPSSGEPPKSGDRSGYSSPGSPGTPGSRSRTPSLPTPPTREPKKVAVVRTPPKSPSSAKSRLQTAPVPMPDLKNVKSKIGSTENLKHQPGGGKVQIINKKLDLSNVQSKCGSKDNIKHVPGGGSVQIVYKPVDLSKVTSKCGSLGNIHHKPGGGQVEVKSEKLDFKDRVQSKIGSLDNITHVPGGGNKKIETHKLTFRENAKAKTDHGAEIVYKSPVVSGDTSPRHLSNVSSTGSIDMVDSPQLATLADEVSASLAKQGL
Numbers only, in s⁻¹.

Solved cases (2 shown):
binder	koff (s⁻¹)
#44 VH4VK3 humanised hIgG1 (antibody, V domains shown, also called VH4Vκ3; Clone VH4VK3 (D)) VH: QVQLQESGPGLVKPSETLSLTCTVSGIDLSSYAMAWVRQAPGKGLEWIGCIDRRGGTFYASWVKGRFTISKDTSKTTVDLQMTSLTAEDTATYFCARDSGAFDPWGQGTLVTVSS VL: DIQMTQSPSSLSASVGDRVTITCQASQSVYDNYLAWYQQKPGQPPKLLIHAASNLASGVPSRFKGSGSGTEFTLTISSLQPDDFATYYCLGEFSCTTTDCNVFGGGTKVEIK	0.0403
#44 VH4VK2 humanised hIgG1 (antibody, V domains shown, also called VH4Vκ2; Clone VH4VK2 (C)) VH: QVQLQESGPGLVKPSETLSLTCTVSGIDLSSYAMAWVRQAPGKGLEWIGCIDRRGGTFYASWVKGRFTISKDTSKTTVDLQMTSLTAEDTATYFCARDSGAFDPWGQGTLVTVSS VL: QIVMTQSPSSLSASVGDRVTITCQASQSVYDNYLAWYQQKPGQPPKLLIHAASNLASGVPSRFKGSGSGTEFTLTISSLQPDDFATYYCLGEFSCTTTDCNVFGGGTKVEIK	0.0401

Next:
Prompt: Requested field: koff. Item: #44_VH4VK4 humanised hIgG1 (antibody, V domains shown, also called VH4Vκ4; pVH/pVL) VH: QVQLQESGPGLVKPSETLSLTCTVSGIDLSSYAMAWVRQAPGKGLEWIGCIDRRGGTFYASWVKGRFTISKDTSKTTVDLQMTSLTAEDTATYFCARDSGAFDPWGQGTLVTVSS VL: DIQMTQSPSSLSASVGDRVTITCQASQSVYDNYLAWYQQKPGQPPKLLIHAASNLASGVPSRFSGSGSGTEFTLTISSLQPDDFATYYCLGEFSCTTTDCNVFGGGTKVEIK
Response: 0.0316

Every entry's value here was drawn from patent US20250270301A1.
